Catalogue of sequences with associated switch fluorescence ratio
system: ATP; test: switch fluorescence ratio, 500 uM ATP over buffer (Cy3 cluster intensity, sum of 5 cycles each) (fold (ratio)); higher = stronger signal-on switching upon ATP binding; sequences stand for … in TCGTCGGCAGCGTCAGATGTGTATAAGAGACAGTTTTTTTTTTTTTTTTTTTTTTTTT…TC; conditions: aptamer strand: ATP DNA aptamer (quencher-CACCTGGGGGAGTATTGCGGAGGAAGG + anchor), 100 nM annealed; ATP concentration: 500 uM;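 note: ATP exposure 15 min at 22 °C before imaging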
Provide a numeric answer; units are not to be included.

Exercise: What value of switch fluorescence ratio has been recorded for this entry: GTTGGAAACT
Solution: 1.04

Exercise: Lookup AATCATGCGA
Solution: 0.996

Exercise: Lookup CGGGGCAGCT
Solution: 1.1

Exercise: Lookup ATGAATCTCG
Solution: 0.99

Exercise: Lookup ATTGCAATGT
Solution: 1.04

Attention now shifts to the item below.
Exercise: What value of switch fluorescence ratio has been recorded for this entry: GCCCCACCTG
Solution: 1.05
